- Procedure Summary: chemical genetic growth profiling, strain panel (AID 1159580);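 also: tested at 20 µM; growth read once vehicle control cultures reached saturation at 30 °C; 1 = growth at the plate median or of vehicle wells; lower values mean less growth of the strain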
- Condition Info: S. cerevisiae deletion strains, growth OD, locus YDL214C, strain PRR2
About 2,000 (36%) of roughly 5,500 compounds were called active. About 18% were inconclusive and are not listed. Rule as the data show it: active = normalized growth mostly below about 0.91 (no sharp cut-off); inconclusive = no clear call, values can overlap the other calls; inactive = mostly above about 0.92. The list shows a part of the results.
Response enum: TRUE (active), FALSE (inactive)

Consider the worked cases shown below.
Compound: O=C(Nc1cccc(C(F)(F)F)c1)c1cncc(C#Cc2ccccc2)c1
Qualitative Label: FALSE

Compound: Oc1c(Cl)cc(Cl)cc1C=Nc1nc(-c2ccc3ccccc3c2)cs1
Qualitative Label: FALSE

Compound: N/C(CCSc1ccc(Cl)cc1)=N/OC(=O)Nc1ccc(Cl)cc1
Qualitative Label: TRUE

Compound: Cc1nn(C)c(C(=O)Sc2ccc(OC(F)(F)F)cc2)c1[N+](=O)[O-]
Qualitative Label: FALSE

Compound: N#C/C(=N/Nc1ccc(F)cc1)C(=O)c1ccccc1
Qualitative Label: FALSE

Compound: CC(C)(C)c1ccc(C(=N)SC(C(=O)C(F)(F)F)c2ccccc2)cc1 (stereo not drawn)
Qualitative Label: FALSE

Would you mind telling me which call this test gave "C/C(Cc1nnn(-c2cc(C)on2)n1)=N/OC(=O)Nc1ccc(Cl)cc1" ? FALSE

----------
- Procedure Summary: chemical genetic growth profiling, strain panel (AID 1159580);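 also: tested at 20 µM; growth read once vehicle control cultures reached saturation at 30 °C; 1 = growth at the plate median or of vehicle wells; lower values mean less growth of the strain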
- Condition Info: S. cerevisiae deletion strains, growth OD, locus YGL227W, strain vid30, hits give low values
Among all 5,500 compounds or so, about 2,000 (36%) were called active. About 18% were inconclusive and are not listed. Some of the results follow.
For each entry below, report its normalized growth value.
Numbers only.

Please review the entries below; each comes with its answer.
Compound: COC(=O)C1=COC(OC2OC(CO)C(O)C(O)C2O)C2C(C)CC(=O)C12 (stereo not given)
Value Measured: 1.03

Compound: C=C1C2CC[C@@]3(C)[C@H](c4ccoc4)OC(=O)C[C@]13O[C@H]1CC(=O)C(C)(C)[C@H](C(OC(C)=O)C(=O)OC)[C@@]21C (stereo not given in full)
Value Measured: 1.01

Compound: COc1ccc(-c2coc3cc(O)ccc3c2=O)c(O)c1O
Value Measured: 0.989

Compound: Cc1ccccc1C(OCCN(C)C)c1ccccc1 (stereo not given)
Value Measured: 1.02

Compound: COc1ccc(-c2coc3cc(O)ccc3c2=O)c(OC)c1O
Value Measured: 0.957

Parameter requested: normalized growth. Apply to each item below.
1. Nc1ncn[nH]1
2. C=C1CCC2[C@](C)(CO)[C@H](O)CC[C@@]2(C)[C@@H]1C/C=C1/C(=O)OC[C@H]1O (stereo not given in full)
3. COc1ccc(-c2coc3cc(O)ccc3c2=O)c(OC)c1
4. CC(=O)Oc1cc(OC(C)=O)c2c(c1)O[C@H](c1ccc(OC(C)=O)c(OC(C)=O)c1)[C@H](OC(C)=O)C2

[1.02, 0.991, 0.992, 0.991]

Bench note: what normalized growth did "O=c1c(-c2ccc(O)cc2)coc2cc(O)ccc12" show? 0.984

----------
- Procedure Summary: chemical genetic growth profiling, strain panel (AID 1159580);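 also: tested at 20 µM; growth read once vehicle control cultures reached saturation at 30 °C; 1 = growth at the plate median or of vehicle wells; lower values mean less growth of the strain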
- Condition Info: S. cerevisiae deletion strains, growth OD, locus YEL037C, strain rad23, hits give low values
Screen size: about 5,500 compounds; about 2,000 (36%) were called active. Roughly 18% stayed inconclusive and do not appear here. The list shows a part of the results.
Readout Label: normalized growth
Give bare numbers.

Reference set, count: 4
Structure String: CC(=O)Oc1cc(OC(C)=O)c2c(c1)O[C@H](c1ccc(OC(C)=O)c(OC(C)=O)c1)[C@@H](OC(C)=O)C2
normalized growth: 1
--
Structure String: NCCS(=O)(=O)O
normalized growth: 0.975
--
Structure String: O=C(O[C@@H]1Cc2c(O)cc(O)cc2O[C@@H]1c1ccc(O)c(O)c1)c1cc(O)c(O)c(O)c1
normalized growth: 0.984
--
Structure String: NCCCS(=O)(=O)O
normalized growth: 1.02

Find the recorded normalized growth belonging to "O=C(O[C@@H]1Cc2c(O)cc(O)cc2O[C@@H]1c1cc(O)c(O)c(O)c1)c1cc(O)c(O)c(O)c1" and report it. 0.905
